- Test system: RXF-631 renal
- assay: NCI tumour cell line growth inhibition, 48 h
Reported TGI values for the following compounds.
attribute.measured: TGI (µM)

>>> df
                                   compound  attribute_measured  reading_unit  comparison_operator  result
0  CCCCCCCCCCCCCCCc1ccc(OCC(O)CO)cc1 (stereo not given)                 TGI            µM                    =    71.6
1  CC(=O)Oc1cc(C)c2c(c1OC(C)=O)CC1(O2)[C@@H](C)CCC2[C@@]3(C)CC[C@H](OC(C)=O)C(C)(C)C3CC[C@]21C (stereo not given in full)                 TGI            µM                    =    19.9
2  CCCCCCCc1cc(OC(=O)c2c(C)cc(OC)cc2O)cc(O)c1C(=O)O                 TGI            µM                    =    63.9
3                         CCOCN1COCN=C1NC#N                 TGI            µM                    >     100
4            C/C(=N\NC(N)=S)c1cc(C)c(C)cc1C                 TGI            µM                    >     100

----------
Reported TGI values for the following molecules.
- Test system: HOP-62 NSCLC
- assay: NCI tumour cell line growth inhibition, 48 h

molecule	measurement.target	TGI
CCOC(=O)N1C2C=C(C)C(ON2C(=O)c2ccccc2)C2C(C)C(=O)N21 (stereo not given)	HOP-62 NSCLC	> 100 µM
C=CCc1cc(-c2cc(CC=C)c(O)c(CNC)c2)cc(CNC)c1O	HOP-62 NSCLC	33.4 µM
CC1=NOC2(C1)C(=O)Nc1ccccc12 (stereo not given)	HOP-62 NSCLC	> 100 µM
Nc1ccc(-c2cssc2=S)cc1	HOP-62 NSCLC	> 100 µM
C=[N+](CNC(=O)CNC(=O)C(Cc1ccc([N+](=O)[O-])cc1)NC(=O)OC(C)(C)C)C(=O)CNC(=O)C(Cc1ccc([N+](=O)[O-])cc1)NC(=O)OC(C)(C)C (stereo not given)	HOP-62 NSCLC	> 100 µM

----------
- Test system: SW-620 colon
- assay: NCI tumour cell line growth inhibition, 48 h
attribute.measured: GI50

                                   compound  measurement_target    result
0  O=c1c2c3c(sc2n2c(-c4cc(-c5ccccc5)no4)nnc2n1Cc1ccccc1)CCCC3        SW-620 colon   31.4 µM
1  Cc1ccc(NC(=O)Cc2ccc(/C=C/C(=O)c3ncc[nH]3)cc2)cc1        SW-620 colon   5.22 µM
2  CCN1/C(=C/C=C/c2n(-c3ccccc3)c3ccc(-c4nc5ccccc5s4)cc3[n+]2CC)N(c2ccccc2)c2ccc(-c3nc4ccccc4s3)cc21        SW-620 colon  0.445 µM
3  O=C1C2C(C(=O)[N]1[Hg][c]1cccs1)C1(Cl)C(Cl)=C(Cl)C2(Cl)C1(Cl)Cl (centres undefined)        SW-620 colon   1.02 µM

----------
- System: MDA-MB-231 breast
- assay: NCI tumour cell line growth inhibition, 48 h
attribute.measured: TGI

compound	attribute.measured	result
COC(=O)C1CCOC(C)N1C(=O)OC(C)(C)C (stereo unspecified)	TGI	> 100 µM
Nc1ncnc2c1ncn2Cc1ccc(C23CC4CC(CC(C4)C2)C3)c(OCc2cc(F)c(F)cc2F)c1	TGI	> 100 µM
COc1cc(-n2cc(-c3ccc(F)cc3)nc2SCc2ccccc2)cc(OC)c1OC	TGI	> 100 µM
CC(C)(O)C#Cc1ccc(/C=C/C(=O)c2ccccc2)s1	TGI	32.3 µM
CCOc1ccc(Nc2nc3c(s2)C(=O)c2ccccc2C3=O)cc1	TGI	18.4 µM
CN(C)Cc1cc(N=Nc2cccc(Cl)c2)ccc1O	TGI	36.7 µM
C1=Nc2ccc(cc2)N=Cc2ccc(cc2)OCc2cccc(n2)COc2ccc1cc2	TGI	> 100 µM
O=C(C[C@H](NC(=O)OCc1ccccc1)C(=O)NC1Cc2ccccc2OC1=O)OCc1ccccc1 (stereo partly specified)	TGI	71.6 µM
COc1cccc(C2C3=C(COC3=O)N(CCO)c3cc(OC)ccc32)c1 (stereo unspecified)	TGI	4.91 µM
CC(=O)N1N=C(c2ccc(Nc3nc(Nc4ccc(Cl)cc4)nc(Nc4ccc(Cl)cc4)n3)cc2)CC1c1ccc([N+](=O)[O-])cc1 (stereo unspecified)	TGI	> 92 µM
O=S(=O)(Cc1ccc(Cl)cc1Cl)c1ccc(Cl)cc1	TGI	> 61.6 µM
Cn1c(-c2cccs2)cc(-c2ccccc2)c1-c1cccs1	TGI	> 100 µM
N#CC1Cc2cc3c(cc21)OCO3 (stereo unspecified)	TGI	> 100 µM
N#Cc1ncc(-c2ccc(C(F)(F)F)cc2)c(NCc2cc(C(F)(F)F)cc(C(F)(F)F)c2)n1	TGI	12.6 µM
COc1ccc2c(c1O)C13CCN(C)C(C2)C1CCC1(C3)OCCO1 (stereo unspecified)	TGI	> 100 µM
Nc1ccc(-c2cssc2=S)cc1	TGI	> 100 µM
c1ccc(C2CC(c3cccc(Nc4ccncc4)c3)=NN2c2ccccc2)cc1 (stereo unspecified)	TGI	3 µM
COc1cc2c(c(O)c1OC)C(O)C1CCC(=O)N1C2c1cccc2ccccc12 (stereo unspecified)	TGI	> 100 µM
Cc1cccc2cc3c(ccc4ccccc43)c[n+]12	TGI	> 100 µM
O=C(O)c1cc(=O)[nH]c(SCc2ccccc2)n1	TGI	> 100 µM
COc1ccc(NC(=O)CC(=O)N2N=C(c3ccccc3)C(N=Nc3ccc(S(=O)(=O)CCOS(=O)(=O)O)cc3)C2=O)cc1 (stereo unspecified)	TGI	> 100 µM
Cc1c(C#N)c2ccccc2c2nc3ccccc3n12	TGI	86.9 µM
O=c1ccc(N=Nc2ccc([N+](=O)[O-])cc2)ccc1O	TGI	71.2 µM
O=c1[nH]cnc2c1sc1nc3ccccc3n12	TGI	> 100 µM
COc1ccc(-n2cc(-c3cc(OC)c(OC)c(OC)c3)nc2SCc2ccccc2)cc1	TGI	> 100 µM
CC(=O)Nc1ccc(N=C2C(c3ccccc3)=C(SC3=C(c4ccccc4)C(=Nc4ccc(NC(C)=O)cc4)c4ccccc43)c3ccccc32)cc1	TGI	> 100 µM
CC(=O)CCc1ccc(OC2OC(COC(=O)c3cc(O)c(O)c(O)c3)C(O)C(O)C2OC(=O)/C=C/c2ccccc2)cc1 (stereo unspecified)	TGI	44.5 µM
CC(C)(C)OC(=O)CC(NC(=O)OC(C)(C)C)C(=O)N[C@@H]1CCCC[C@H]1C(=O)OCc1ccccc1 (stereo partly specified)	TGI	> 100 µM
C/C=C/C/C=C/CCC(=O)[C@H]1O[C@H]1C(N)=O	TGI	26.8 µM
Oc1ccc(CN2CCC(N3CCOCC3)CC2)c2cccnc12	TGI	> 100 µM
CCC1C(=O)OCc2c1cc1n(c2=O)Cc2cc3ccccc3nc2-1 (stereo unspecified)	TGI	> 100 µM
CC(=O)Nc1ccc2c3c(cc(O)c2c1)N(C(=O)CCCCCC(=O)N1CC(CCl)c2c1cc(O)c1cc(NC(C)=O)ccc21)CC3CCl (stereo unspecified)	TGI	0.0503 µM
COC(=O)C1=C(C(=O)OC)C(Cc2ccccc2)(OO)OC1=O (stereo unspecified)	TGI	> 100 µM
S=C1Cc2c(-c3ccc(Cl)cc3)cc(-c3ccccc3)nc2-c2ccccc2N1	TGI	23.8 µM
Cn1cc(C2=C(c3cccc(N)c3)C(=O)NC2=O)c2ccccc21	TGI	> 25 µM
CCOc1ccc(-c2cnnn2-c2nonc2-n2cccc2)cc1	TGI	5.03 µM
N#Cc1cccc(OCc2nc(N)nc(N)c2-c2ccc(Cl)c(Cl)c2)c1	TGI	> 100 µM
CC(=O)Oc1c(C)c2c(O)c3c1C1=C(OCOC1=C(C)C3=O)/C(C)=C\C(C)(O)C(O)C(C)C(O)C1C(=O)OC(C(C)C1O)C(C)(O)/C=C/C=C(C)C(=O)N2 (stereo unspecified)	TGI	> 100 µM
Cc1ncc([N+](=O)[O-])n1CCN(C)C(=O)CCCn1ccnc1[N+](=O)[O-]	TGI	> 100 µM
CC1(C)C2CCC(CN)(C2)C1O (stereo unspecified)	TGI	> 100 µM
Nc1cc(C(=O)O)[nH]c(=O)n1	TGI	> 100 µM

----------
- System: NCI-H23 lung
- assay: NCI tumour cell line growth inhibition, 48 h; in the data active means GI50 below about 0.43 µM; inactive means the rest
Classes used: active, inactive

>>> print(df.to_string())
                                   compound  measurement_target       cat
0  O=C1CC(c2cccc(O)c2)C2(C(=O)NC(=S)NC2=O)C(c2cccc(O)c2)C1 (centres undefined)        NCI-H23 lung  inactive
1  Cn1cc(C2=C(c3cccc(N)c3)C(=O)NC2=O)c2ccccc21        NCI-H23 lung  inactive
2  CN(CCCCCl)P(=O)(OCc1ccc([N+](=O)[O-])o1)OCC1OC(n2ccc(N)nc2=O)C(F)(F)C1O (centres undefined)        NCI-H23 lung    active
3       CC(=O)Nc1ccc(/C=C/C(=O)c2ccccc2)cc1        NCI-H23 lung  inactive
4  CCCCCCc1cc2cc(-c3nc4ccccc4[nH]3)c(=Nc3ccccc3C)oc2cc1O        NCI-H23 lung  inactive
5  COc1ccc2c(c1)=C(C=C1C=CN(O)C=C1)C(=O)N=2        NCI-H23 lung  inactive
6      O=c1cc(-c2ccccc2)oc2cc(O)c(O)c(O)c12        NCI-H23 lung  inactive
7  O=c1c2c3c(sc2n2c(-c4cc(-c5ccccc5)no4)nnc2n1Cc1ccccc1)CCCC3        NCI-H23 lung  inactive
8  N#C/C(=N\Nc1ccc(Cl)cc1)C(=O)Nc1cc(-c2ccccc2)nn1-c1ccccc1        NCI-H23 lung  inactive
